# target: native mouse MET on living cells (mouse, UniProt P16056 25-1379)
# protocol: cell-based or functional assay
quantityMeasured: scatter score 0-4, MLP29, 0.037 nM (score)
Numeric answer only, unit score assumed.

## Task Provide measured scatter score 0-4, MLP29, 0.037 nM value, entry: 71G2 chimeric llama-human IgG1 mAb (antibody, V domains shown, llama VH on human IgG1 CH1-CH2-CH3, llama VL on human lambda CL) VH: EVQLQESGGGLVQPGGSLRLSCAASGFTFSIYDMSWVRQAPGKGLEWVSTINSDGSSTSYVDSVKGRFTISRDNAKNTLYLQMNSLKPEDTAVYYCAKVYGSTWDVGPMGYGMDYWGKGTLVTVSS VL: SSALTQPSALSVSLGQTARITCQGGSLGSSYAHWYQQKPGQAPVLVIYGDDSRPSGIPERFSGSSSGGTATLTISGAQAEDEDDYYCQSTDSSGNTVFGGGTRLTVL
## Result 2

## Task Provide measured scatter score 0-4, MLP29, 0.037 nM value, entry: 71C3 chimeric llama-human IgG1 mAb (antibody, V domains shown, llama VH on human IgG1 CH1-CH2-CH3, llama VL on human lambda CL) VH: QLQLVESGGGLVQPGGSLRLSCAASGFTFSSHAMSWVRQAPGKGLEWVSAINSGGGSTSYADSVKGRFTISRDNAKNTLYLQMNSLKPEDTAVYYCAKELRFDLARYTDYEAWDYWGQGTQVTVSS VL: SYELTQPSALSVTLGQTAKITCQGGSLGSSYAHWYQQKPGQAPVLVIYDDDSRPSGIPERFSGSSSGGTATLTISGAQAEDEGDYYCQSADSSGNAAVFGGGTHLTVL
## Result 0

## Task Provide measured scatter score 0-4, MLP29, 0.037 nM value, entry: 71D4 chimeric llama-human IgG1 mAb (antibody, V domains shown, llama VH on human IgG1 CH1-CH2-CH3, llama VL on human lambda CL) VH: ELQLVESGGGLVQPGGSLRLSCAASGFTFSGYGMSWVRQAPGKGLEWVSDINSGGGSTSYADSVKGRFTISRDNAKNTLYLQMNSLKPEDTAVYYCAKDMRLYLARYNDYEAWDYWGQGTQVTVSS VL: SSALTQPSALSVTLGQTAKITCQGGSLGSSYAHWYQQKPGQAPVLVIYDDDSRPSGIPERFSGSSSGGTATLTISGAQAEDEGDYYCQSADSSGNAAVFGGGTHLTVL
## Result 0

## Task Provide measured scatter score 0-4, MLP29, 0.037 nM value, entry: 76G7 chimeric llama-human IgG1 mAb (antibody, V domains shown, llama VH on human IgG1 CH1-CH2-CH3, llama VL on human lambda CL) VH: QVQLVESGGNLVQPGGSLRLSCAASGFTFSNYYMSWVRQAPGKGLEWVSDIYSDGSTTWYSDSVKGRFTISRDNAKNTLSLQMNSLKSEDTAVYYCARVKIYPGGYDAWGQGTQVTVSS VL: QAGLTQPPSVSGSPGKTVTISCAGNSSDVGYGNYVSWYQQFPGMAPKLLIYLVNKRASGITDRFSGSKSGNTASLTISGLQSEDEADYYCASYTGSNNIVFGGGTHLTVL
## Result 0

## Task Provide measured scatter score 0-4, MLP29, 0.037 nM value, entry: 71G12 chimeric llama-human IgG1 mAb (antibody, V domains shown, llama VH on human IgG1 CH1-CH2-CH3, llama VL on human kappa CL) VH: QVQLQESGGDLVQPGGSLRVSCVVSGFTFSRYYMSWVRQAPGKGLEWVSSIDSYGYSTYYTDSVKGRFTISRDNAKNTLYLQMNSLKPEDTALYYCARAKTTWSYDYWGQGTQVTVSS VL: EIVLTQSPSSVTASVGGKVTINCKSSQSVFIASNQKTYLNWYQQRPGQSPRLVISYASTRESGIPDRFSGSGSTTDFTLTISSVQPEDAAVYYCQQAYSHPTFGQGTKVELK
## Result 0
